Molecular target: hNTS2 receptor (Homo sapiens, UniProt O95665)
Construct: membranes prepared from them
Sequence (O95665 whole entry): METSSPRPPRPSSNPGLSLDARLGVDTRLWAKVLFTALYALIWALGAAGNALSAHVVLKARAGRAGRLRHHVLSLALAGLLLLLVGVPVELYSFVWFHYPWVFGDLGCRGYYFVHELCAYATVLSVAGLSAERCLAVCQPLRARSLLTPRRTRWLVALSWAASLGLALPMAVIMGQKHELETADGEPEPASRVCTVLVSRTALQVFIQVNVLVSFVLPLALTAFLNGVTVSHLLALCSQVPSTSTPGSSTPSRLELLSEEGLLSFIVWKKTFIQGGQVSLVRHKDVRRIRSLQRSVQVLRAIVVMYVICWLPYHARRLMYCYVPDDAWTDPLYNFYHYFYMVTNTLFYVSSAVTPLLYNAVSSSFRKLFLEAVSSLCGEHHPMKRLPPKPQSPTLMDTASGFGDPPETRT
Test: Competitive radioligand binding assay on the hNTS2 receptor
Conditions: ratio IC50 for NTS1 : IC50 for NTS2
*1 amine or outer side, *2 acyl side, *3 side chain or, on linkers, in order; H or OH if unused. Where a SMILES comes first, the peptide text is derived from it. Bridges are numbered along the chain shown (N, C = ends). [ ]: non-standard residue; d: D form. ξ: configuration not given here. ξαMeNle(6-ylidene) = CC(CCCC=[*:3])(N[*:1])C(=O)[*:2]; Phe(4-Br) = N[C@@H](Cc1ccc(Br)cc1)C(=O)O; Ala(cPent) = N[C@@H](CC1CCCC1)C(=O)O; hTyr = N[C@@H](CCc1ccc(O)cc1)C(=O)O; AllylGly = C=CC[C@H](N)C(=O)O; Cba = N[C@@H](CC1CCC1)C(=O)O
I'd be grateful if you could share measured Selectivity for these entries.
Answers are plain numbers.

- compound: "CC(C)C[C@H](NC(=O)[C@H](Cc1ccc(O)cc1)NC(=O)[C@@H]1CSSC[C@H](N)C(=O)N[C@@H](CCCCN)C(=O)N[C@@H](CCCCN)C(=O)N1)C(=O)O [compound 152, c[CKKC]YL] (H-CKKCYL-OH; disulfide 1-4)"
  metric_name: "Selectivity"
  reported_value: 7
- compound: "CC(C)C[C@H](NC(=O)[C@H](CC1CCC1)NC(=O)[C@@H]1CC=CC[C@H](N)C(=O)N[C@@H](CCCCN)C(=O)N[C@@H](CCCCN)C(=O)N1)C(=O)O [compound 143, c[G(All)KKG(All)]A (cyclobutyl)L] (H-[AllylGly]KK[AllylGly][Cba]L-OH; staple 1-4)"
  metric_name: "Selectivity"
  reported_value: 362
- compound: "CC(C)C[C@H](NC(=O)[C@H](CCc1ccc(O)cc1)NC(=O)[C@@H]1CC=CC[C@H](N)C(=O)N[C@@H](CCCCN)C(=O)N[C@@H](CCCCN)C(=O)N1)C(=O)O [compound 126, c[G(All)KKG(All)]homoYL] (H-[AllylGly]KK[AllylGly][hTyr]L-OH; staple 1-4)"
  metric_name: "Selectivity"
  reported_value: 1224

Next, consider the following compound.
So what's the measured Selectivity for this one? CC1(C(=O)N[C@@H](Cc2ccc(Br)cc2)C(=O)N[C@@H](CC2CCCC2)C(=O)O)CCCC=CC[C@H](N)C(=O)N[C@@H](CCCCN)C(=O)N[C@@H](CCCCN)C(=O)N1 (stereo partly shown) [compound 133] (H-[AllylGly]KK[ξαMeNle(6-ylidene)][Phe(4-Br)][Ala(cPent)]-OH; staple 1-4)
33333

====

I'd be grateful if you could share measured IC50 for these entries.
Biological target: hNTS2 receptor (Homo sapiens, UniProt O95665)
Construct: membranes prepared from them
Assay: Competitive radioligand binding assay on the hNTS2 receptor
Details: displacement of 125I-[Tyr3]-NT, membranes of 1321N1 cells expressing hNTS2; read-out: IC50 NTS2 (converted)
Where a SMILES comes first, the peptide text is derived from it. Bridges are numbered along the chain shown (N, C = ends). [ ]: non-standard residue; d: D form. 2Pal = N[C@@H](Cc1ccccn1)C(=O)O; dAllylGly = C=CC[C@@H](N)C(=O)O; dTic = O=C(O)[C@H]1Cc2ccccc2CN1; AllylGly = C=CC[C@H](N)C(=O)O; Dab = NCC[C@H](N)C(=O)O; Nva = CCC[C@H](N)C(=O)O
Give bare numbers, in nM.

Example results:
- compound: "CC(C)C[C@H](NC(=O)[C@H](Cc1ccc(O)cc1)NC(=O)[C@@H]1CC(=O)NCCCC[C@H](N)C(=O)N[C@@H](CCCCN)C(=O)N[C@@H](CCCCN)C(=O)N1)C(=O)O [compound 97, c[KKKD]YL] (H-KKKDYL-OH; lactam 1-4)"
  IC50 / nM: 1020
- compound: "CC1(C(=O)N[C@@H](Cc2ccc(O)cc2)C(=O)N[C@@H](CC2CCCC2)C(=O)O)CCCC=CCCC(=O)N[C@@H](CCCCN)C(=O)N[C@@H](CCCCN)C(=O)N1 (some centres unmarked)"
  IC50 / nM: 45.9
- compound: "COc1ccc(C[C@H](NC(=O)[C@H](Cc2ccc(O)cc2)NC(=O)[C@@H]2CC=CC[C@H](N)C(=O)N[C@@H](CCCCN)C(=O)N[C@@H](CCCCN)C(=O)N2)C(=O)O)cc1 [compound 62, c[G(All)KKG(All)]YY(OMe)] (H-[AllylGly]KK[AllylGly]YY(Me)-OH; staple 1-4)"
  IC50 / nM: 166
- compound: "CC(C)C[C@H](NC(=O)[C@H]1Cc2ccccc2CN1C(=O)[C@@H]1CC=CC[C@H](N)C(=O)N[C@@H](CCCCN)C(=O)N[C@@H](CCCCN)C(=O)N1)C(=O)O [compound 163, c[G(All)KKG(All)]G(Tic)L] (H-[AllylGly]KK[AllylGly][dTic]L-OH; staple 1-4)"
  IC50 / nM: 10000

Would you be so kind as to report IC50 for each listed record?
1. CC(C)C[C@H](NC(=O)[C@H](Cc1ccc(O)cc1)NC(=O)[C@@H]1CC=CC[C@H](N)C(=O)N[C@@H](CCN)C(=O)N[C@@H](CCCCN)C(=O)N1)C(=O)O [compound 80, c[G(All)DabKG(All)]YL] (H-[AllylGly][Dab]K[AllylGly]YL-OH; staple 1-4)
2. CCC[C@H](NC(=O)[C@H](Cc1ccc(O)cc1)NC(=O)[C@@H]1CC=CC[C@H](N)C(=O)N[C@@H](CCCCN)C(=O)N[C@@H](CCCCN)C(=O)N1)C(=O)O [compound 29, c[G(All)KKG(All)]YNva] (H-[AllylGly]KK[AllylGly]Y[Nva]-OH; staple 1-4)

1. 137
2. 3300

Would you be so kind as to report IC50 for each listed record?
1. CC(C)C[C@H](NC(=O)[C@H](Cc1ccccn1)NC(=O)[C@@H]1CC=CC[C@H](N)C(=O)N[C@@H](CCCCN)C(=O)N[C@@H](CCCCN)C(=O)N1)C(=O)O [compound 165, c[G(All)KKG(All)]A(2-pyridyl)L] (H-[AllylGly]KK[AllylGly][2Pal]L-OH; staple 1-4)
2. CC(C)C[C@H](NC(=O)[C@H](Cc1ccc(O)cc1)NC(=O)[C@H]1CC=CC[C@@H](N)C(=O)N[C@@H](CCCCN)C(=O)N[C@@H](CCCCN)C(=O)N1)C(=O)O [compound 42, c[G*(All)KKG*(All)]YL] (H-[dAllylGly]KK[dAllylGly]YL-OH; staple 1-4)

509
2300

Data credit: patent US12358948B2
